Target: CSF1R-autoinhibited (Homo sapiens, UniProt P07333)
Sequence (P07333 539-972 limits assumed): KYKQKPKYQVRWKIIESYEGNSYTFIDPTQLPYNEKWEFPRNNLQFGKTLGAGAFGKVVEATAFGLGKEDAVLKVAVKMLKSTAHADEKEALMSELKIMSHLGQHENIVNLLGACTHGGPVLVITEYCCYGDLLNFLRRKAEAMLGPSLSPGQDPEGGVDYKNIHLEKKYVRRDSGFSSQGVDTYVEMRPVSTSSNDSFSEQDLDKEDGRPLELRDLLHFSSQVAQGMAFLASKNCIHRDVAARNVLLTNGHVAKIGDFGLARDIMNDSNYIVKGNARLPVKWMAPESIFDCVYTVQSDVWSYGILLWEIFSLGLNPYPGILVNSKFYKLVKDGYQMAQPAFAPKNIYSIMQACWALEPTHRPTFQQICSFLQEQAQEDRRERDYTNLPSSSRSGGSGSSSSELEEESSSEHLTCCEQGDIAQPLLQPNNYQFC
Test: KINOMEscan competition binding
Conditions: read-out: %Inh CSF1R-autoinhibited
Parameter measured: inhibition at 1 µM (%)
Report the value in % with no unit label.

Example results:
[
  {
    "Compound": "COc1cccc(OC)c1C(=O)Nc1cccc(-c2nn3ccccc3c2-c2ccnc(Nc3cccc(F)c3)n2)c1 [UNC10225310A]",
    "inhibition at 1 µM, %": 4
  },
  {
    "Compound": "Cn1cc(-c2cnc(N)c3c(-c4ccc5c(c4)CCN5C(=O)Cc4ccccc4)csc23)cn1 [UNC10225012A]",
    "inhibition at 1 µM, %": 39
  },
  {
    "Compound": "O=c1cc(N2CCOCC2)nc2n(Cc3cccc(Cl)c3Cl)c(C3CC3)nn12 [UNC10225469A]",
    "inhibition at 1 µM, %": 0
  },
  {
    "Compound": "Cc1ccc(NC(=O)Nc2cccc(C(F)(F)F)c2)cc1 [UNC10225187A]",
    "inhibition at 1 µM, %": 0
  }
]

Note: attention shifts to another entry.
inhibition at 1 µM reading for CS(=O)(=O)Cc1ccc(Nc2nccc(-c3c(-c4cccc(NC(=O)C5CCCCC5)c4)nn4ncccc34)n2)cc1 [UNC10225159A] : 35
